// reported growth per item
system: U251 CNS; experiment: NCI-60 one-dose screen, 48 h (100 = growth as untreated, 0 = no growth, -100 = all killed); conditions: 10 µM unless noted
About 83,000 compounds went through this panel and 20% of them were active in at least one assay; those are over-represented in the sample as a whole. Activity calls are given as the source filed them. How the source made its calls: active means growth percent below 10; inactive means the rest.

For orientation, consider the following solved cases.
Enquiry: Item Cc1nc2sc(C(=O)Nc3cccc(Br)c3C)c(N)c2cc1C(O)c1ccccc1 (stereo unspecified) has what recorded growth?
Return: 2.74% (active)

Enquiry: Again, but for C=C1C(=O)O[C@H]2[C@H]1CC/C(COC(=O)c1ccc(C(=O)O)s1)=C\CC[C@@]1(C)O[C@@H]21
Return: 22.4% (inactive)

Enquiry: Try this compound next: NNCCc1ccc(NC(=O)CCCc2ccc(C(=O)Nc3ccccc3N)cc2)cc1
Return: 54.1% (inactive)

Enquiry: What do you get for CN1CCN(CCCOc2cccc3nc(Nc4ccc(F)c(F)c4)ccc23)CC1 ?
Return: -70.3% (active)

Enquiry: And Cc1ccc(S(=O)(=O)Oc2ccc3sc4cccc(NCCN(C)C)c4c(=O)c3c2)cc1 ?
Return: -78.6% (active)

Enquiry: Also COc1cccc(/C=C/C(=O)c2cc3c(N)c(C(=O)Nc4cccc5ccccc45)sc3nc2C)c1 , if possible.
Return: -11.4% (active)

Enquiry: Let us now turn to CSc1nc(C)c([N+](=O)[O-])c(N)n1
Return: 87.9% (inactive)

Enquiry: How about O=C(/C=C/c1cccc(Cl)c1Cl)Nc1ncc(Cc2ccccc2Cl)s1 ?
Return: 50.9% (inactive)

Consider the additional compound presented here.
Enquiry: What growth value was documented for this compound, CC(C)N1C(=O)/C(=c2\sc3n(c2=O)C2C(NN=3)N(C)C(=O)N2C)c2ccccc21 (stereo unspecified) ?
Return: 48.2% (inactive)

* * *

test system: NCI/ADR-RES ovarian; assay: NCI-60 one-dose screen, 48 h (100 = growth as untreated, 0 = no growth, -100 = all killed); conditions: 10 µM unless noted
About 83,000 compounds went through this panel and 20% of them were active in at least one assay; those are over-represented in the sample as a whole.
parameter: growth (%)
Express your answer in %, writing the number without its unit.

See these solved cases before continuing.
Enquiry: Fill in the blank: the reported growth of C=CN(C(=O)N1CCN(c2cc3c(cc2F)c(=O)c(C(=O)O)cn3C2CC2)CC1)c1nc(-c2ccc(OC)cc2)cs1 is ____.
Return: 37.6

Enquiry: Next: Cc1ccc(Cl)cc1NC(=O)c1sc2nc3c(cc2c1N)C(=O)CCC3
Return: 43.8

Enquiry: Again, but for O=C(Cc1ccc(/C=C/C(=O)c2ncc[nH]2)cc1)Nc1cc(C(F)(F)F)cc(C(F)(F)F)c1
Return: 102

Enquiry: Proceed to CCNc1ccc(-c2nc3ccccc3n3cccc23)cc1
Return: 80.6

Enquiry: Query CCc1ccc(CCC(=O)Nc2ncc(Cc3cc(Cl)ccc3Cl)s2)o1 next
Return: -3.44

Enquiry: Repeat with COc1ccc(/C=C/C(=O)c2cc(OC)c(OC)c(OC)c2)cc1OCC(=O)Nc1nc2ccc(OC(F)(F)F)cc2s1
Return: -13.5

---
Enquiry: What value of growth has been reported for the following compound? CCOC(=O)C1=C(C)C(Cl)=N/C1=C\c1[nH]c(Cl)c(C)c1C(=O)OCC
Return: 104

Enquiry: Query COc1cc(C2C(C(=O)OCc3ccccc3)=C(C)NC(C)=C2C(=O)OCc2ccccc2)cc(OC)c1OC next
Return: 26.1

Enquiry: [2H]C([2H])([2H])Oc1ccc(F)cc1/C=C/C(=O)/C=C(/C=C/c1cc(F)ccc1OC([2H])([2H])[2H])OB(F)F ?
Return: 76.5

* * *

tested on: T-47D breast; assay: NCI-60 one-dose screen, 48 h (100 = growth as untreated, 0 = no growth, -100 = all killed); details: 10 µM unless noted
Compounds without any hit were thinned out: in the full panel of roughly 83,000, 20% have a hit. Calls of active or inactive are those of the source. How the source made its calls: active means growth percent below 10; inactive means the rest.
Listed here are molecules together with their documented growth.

Completed entries (count: 2):
Enquiry: What measured growth goes with COc1ccc(/C=C/C(=O)c2cc3c(N)c(C(=O)Nc4cccc(Cl)c4C)sc3nc2C)cc1 ?
Return: 38.9% (inactive)

Enquiry: // query: COc1cc(NC(=O)c2cncnc2Nc2ccc3c(ccn3Cc3ccccn3)c2)cc(OC)c1
Return: 45.3% (inactive)

More entries:
Enquiry: Param item = COc1ccc2nc(Cl)c(/C=C3\CC(c4ccccc4)=NN(c4ccccc4)C3=O)cc2c1 ; retrieve measured growth.
Return: 73.1% (inactive)

Enquiry: Cool, now CSC1=Nc2c(c(C)c(-c3ccccc3)n2CCCC(=O)O)C2=NC(=O)C[C@H](C)N12
Return: 113% (inactive)

Enquiry: For CN1CCN(CCCOc2cccc3nc(Nc4ccc(F)c(F)c4)ccc23)CC1 then?
Return: 19.4% (inactive)

Enquiry: What about CN1CCN(c2ccc(NC(=O)c3cncnc3Nc3ccc(OCc4cccc(F)c4)c(Cl)c3)cc2)CC1 ?
Return: 72.9% (inactive)

Enquiry: What do we get for C=C(c1ccc(OC)c(/C=C/C(=O)c2ccc3c(c2)OCO3)c1)c1cc(OC)c(OC)c(OC)c1 ?
Return: 8.67% (active)

Enquiry: C/C(Cc1ccc(Cl)cc1)=C(\c1ccc(OCCCN(C)C)cc1)c1ccc(OC(=O)Cc2ccccc2)cc1 ?
Return: 71.3% (inactive)

Enquiry: Further, for Cn1c2c(c3ccc(Cl)c(Cl)c31)C(C#N)C(C)(C)NC2=O (configuration not stated) ?
Return: 74.2% (inactive)

Enquiry: Can you check O=C(Nc1ncccc1OCc1ccccc1)NC1CCCCCC1 next?
Return: 71% (inactive)

Enquiry: Another molecule to look at: CN1CCN(c2ccc3nc4c(nc3c2C(F)(F)F)C(=O)c2ncccc2C4=O)CC1
Return: -28.4% (active)

Enquiry: Another: COc1cc2c(c(OC)c1OC)C(=O)CC(c1cccc(NC(=O)c3ccc(C#N)cc3)c1)O2 (configuration not stated)
Return: 8.42% (active)

* * *

Catalogue of growth values
System: SN12C renal
Assay: NCI-60 one-dose screen, 48 h (100 = growth as untreated, 0 = no growth, -100 = all killed)
Conditions: 10 µM unless noted
Procedure: Growth inhibition of the SN12C human tumor cell line is measured as a screen for anti-cancer activity. Cells are grown in 96 well plates and exposed to the test compound for 48 hours. Compounds are tested at a single concentration, which is 10^-5 M for most compounds. The reported endpoint is percent growth (GI% or GIPRCNT), where numbers from 0 - 100% represent growth inhibition, and numbers from -100% - 0 represent cell death. For example, a value of 40 represents 60% growth inhibition. […]
The panel holds about 83,000 compounds, 20% with a hit somewhere; the sample as a whole holds those more often. The source made the active and inactive calls. How the source made its calls: active means growth percent below 10; inactive means the rest.

Example entries begin here.
Enquiry: Consider the compound shown here: Nn1c(=O)c(=O)[nH]c2c(cnn2-c2ccccc2)c1=O What is its recorded growth?
Return: 105% (inactive)

Enquiry: Also check CCN(CC)c1ccc(CNc2cc(C)nc3ccccc23)cc1
Return: 75.4% (inactive)

Enquiry: Field entry: Cc1ncc(C(=O)Nc2ccc(CN3CCN(C)CC3)c(C(F)(F)F)c2)cc1C#Cc1cnc(N)c2ncccc12
Return: -20.3% (active)

Continuing:
Enquiry: Consider the compound shown here: COc1cc(OC)c(/C=C/C(=O)c2c(O)cc(OC)c(C3CCN(C)CC3)c2OC)c(OC)c1 What is its recorded growth?
Return: 4.89% (active)

Enquiry: What do you get for CC/C=C\CCC/C=C1/C(=O)C=C[C@@H]1C/C=C\CCCC(=O)OC ?
Return: 11.6% (inactive)

Enquiry: Then C/C(=N\O)c1ccc(NC(=O)CSc2nnc(-c3cc(-c4ccc(S(N)(=O)=O)cc4)nc4ccccc34)n2-c2ccccc2)cc1 ?
Return: 78.6% (inactive)

Enquiry: Then what about the compound CN1CCN(CCCOc2cccc3nc(Nc4ccc(F)c(F)c4)ccc23)CC1 ?
Return: 24.4% (inactive)

Enquiry: Also Cc1ccc(S(=O)(=O)N2CCC(=O)c3ccccc32)cc1 ?
Return: 81.2% (inactive)

Enquiry: Next entry: CN1CCN(CC(=O)Nc2ccc3ncnc(Nc4ccc(Oc5cccc(C(F)(F)F)c5)c(Cl)c4)c3c2)CC1
Return: 51.3% (inactive)

Enquiry: Here is the next compound: CCCn1cnc2c(c1=N)C(c1ccc(F)cc1)c1sc3c(F)cccc3c1O2 (centres undefined)
Return: 58.6% (inactive)

Enquiry: Now give it for C=C(C)[C@@H]1CC[C@]2(COC(C)=O)CC[C@]3(C)[C@H](CC[C@@H]4[C@@]5(C)CCCN(C(C)=O)C(C)(C)[C@@H]5CC[C@]43C)[C@@H]12 too.
Return: 67.5% (inactive)

Enquiry: Please give the result for NC1=Nc2cc(OCCCCN3Cc4ccccc4C3)c(OCC3CC3)cc2C12CCCC2 too.
Return: 66.5% (inactive)

Enquiry: Now the compound CCOC(=O)c1c(C)c2c(n1Cc1ccccc1)CSCC2=O
Return: 13.7% [100 µM] (inactive)

Enquiry: Please answer likewise for C#CC#CC#CC#CC#CC#CC#CC#CC[C@@H]1OC[C@@H](COC(=O)O[C@@H](C(=O)O[C@H]2C[C@@]3(O)[C@@H](OC(=O)c4ccccc4)[C@@H]4[C@]5(OC(C)=O)CO[C@@H]5C[C@H](O)[C@@]4(C)C(=O)[C@H](OC(C)=O)C(=C2C)C3(C)C)[C@@H](NC(=O)c2ccccc2)c2ccccc2)O1
Return: 21.4% (inactive)
